half-life values by entry
experiment: Metabolic stability in mouse assessed as half life at 160 mg/kg, po by LC-MS/MS analysis; type: ADME, organism-based; parameters: dose 160 mg/kg, route oral

Below are worked cases with known answers.
| STRUCTURE_STRING | half-life |
| --- | --- |
| CN1CC(=O)N=C1NC(=N)Nc1ccc(Cl)c(Cl)c1 | > 60 min |
| CC(C)N1CC(=O)N=C1N/C(=N/c1ccc(Cl)c(Cl)c1)N1CCCCC1 | 18 min |
| CC(C)(C)OC(=O)/N=C(\NC1=NC(=O)CN1C(C)(C)C)Nc1ccc(Cl)c(Cl)c1 | < 10 min |
| CC(C)N1CC(=O)N=C1N/C(=N\C(=O)C(C)(C)C)Nc1ccc(Cl)c(Cl)c1 | > 60 min |
| CC(C)N1CC(=O)N=C1N/C(=N/c1ccc(Cl)c(Cl)c1)N1CCCC1 | > 60 min |

The record that follows has no half-life shown yet.
Per the records, this compound ( `CC(C)N1CC(=O)N=C1N/C(=N\C12CC3CC(CC(C3)C1)C2)Nc1ccc(Cl)c(Cl)c1` ) has half-life equal to 22.3 min

###

assay: Metabolic stability in human assessed as half life at 160 mg/kg, po by LC-MS/MS analysis; format: ADME, organism-based; set-up: dose 160 mg/kg, route oral
PARAMETER: half-life (min)

Below are worked cases with known answers.
| STRUCTURE_STRING | UNITS | half-life |
| --- | --- | --- |
| CC(C)N1CC(=O)N=C1N/C(=N\C(C)(C)C)Nc1ccc(Cl)c(Cl)c1 | min | 39.7 |
| CC(C)N1CC(=O)N=C1N/C(=N\C(=O)OC(C)(C)C)Nc1ccc(Cl)c(Cl)c1 | min | 12.8 |

a = CC(C)/N=C(\NC1=NC(=O)CN1c1ccc(Cl)c(Cl)c1)Nc1ccc(Cl)c(Cl)c1
b = CC(C)N1CC(=O)N=C1N/C(=N\C12CC3CC(CC(C3)C1)C2)Nc1ccc(Cl)c(Cl)c1
Data request: Hey, which is lower on measured half-life, a or b ? Select an item and report its label.
Data returned: b

###

tested on: Plasmodium falciparum; experiment: Antimalarial activity against blood stage Plasmodium falciparum TM91C235 assessed as [3H]-hypoxanthine uptake after 24 hrs by scintillation counting; assay type: functional, organism-based
PARAMETER: IC50 (µg/mL)

Below are worked cases with known answers.
| STRUCTURE_STRING | IC50 [µg/mL] |
| --- | --- |
| CC(C)NC(=N)NC1=NC(=O)CN1c1cccc(Cl)c1Cl | 2.19 |
| CC(C)/N=C(\NC1=NC(=O)CN1c1ccc(Cl)c(Cl)c1)Nc1ccc(Cl)c(Cl)c1 | 2.83 |

1 = CC(C)N1CC(=O)N=C1N/C(=N\C12CC3CC(CC(C3)C1)C2)Nc1ccc(Cl)c(Cl)c1
2 = CC(C)N/C(=N/C(=O)OC(C)(C)C)NC1=NC(=O)CN1c1cccc(Cl)c1Cl
Data request: Which of the two gives a bigger number for IC50: 1 or 2 ? Select an item and report its label.
Data returned: 1

###

assay: Metabolic stability in mouse assessed as half life at 160 mg/kg, po by LC-MS/MS analysis; format: ADME, organism-based; parameters: dose 160 mg/kg, route oral
PARAMETER: half-life (min)

a = CC(C)N1CC(=O)N=C1NC(=N)Nc1ccc(Cl)c(Cl)c1
b = CC(C)N1CC(=O)N=C1N/C(=N\C(=O)OC(C)(C)C)Nc1ccc(Cl)c(Cl)c1
c = CC(C)N1CC(=O)N=C1N/C(=N\C(C)(C)C)Nc1ccc(Cl)c(Cl)c1
d = CC(C)/N=C(\NC1=NC(=O)CN1c1ccc(Cl)c(Cl)c1)Nc1ccc(Cl)c(Cl)c1
Data request: Reorder: half-life, max to min. // format: requested-order list of labels
Data returned: a, d, b, c

###

half-life values by entry
test: Metabolic stability in mouse assessed as half life at 320 mg/kg, po by LC-MS/MS analysis; type: ADME, organism-based; design: dose 320 mg/kg, route oral; conditions: in vivo

Below are worked cases with known answers.
| STRUCTURE_STRING | PARAMETER | TEST_VALUE |
| --- | --- | --- |
| CCOC(=O)/N=C(\NC1=NC(=O)CN1C(C)C)Nc1ccc(Cl)c(Cl)c1 | half-life | > 1 h |
| CCOC(=O)/N=C(/NC1=NC(=O)CN1c1ccc(Cl)c(Cl)c1)NC(C)C | half-life | > 1 h |
| CC(C)NC(=N)NC1=NC(=O)CN1c1cccc(Cl)c1Cl | half-life | 0.225 h |

The record that follows has no half-life shown yet.
Per the records, this compound ( `CCC(CC)C(=O)/N=C(\NC1=NC(=O)CN1c1cccc(Cl)c1Cl)NC(C)C` ) has half-life equal to > 1 h

###

tested on: Plasmodium falciparum; test: Antimalarial activity against blood stage Plasmodium falciparum TM91C235 assessed as [3H]-hypoxanthine uptake after 24 hrs by scintillation counting; format: functional, organism-based
PARAMETER: IC50 (µg/mL)

1 = CC/N=C(\NC1=NC(=O)CN1C(C)C)Nc1ccc(Cl)c(Cl)c1
2 = CC(C)N1CC(=O)N=C1N/C(=N\C(C)(C)C)Nc1ccc(Cl)c(Cl)c1
3 = CCC(CC)C(=O)/N=C(\NC1=NC(=O)CN1C(C)C)Nc1ccc(Cl)c(Cl)c1
Data request: Reorder: IC50, max to min. // format: requested-order list of labels
Data returned: 2, 1, 3
(2: 5.2 µg/mL, 1: 3.01 µg/mL, 3: 0.16 µg/mL)

###

half-life values by entry
assay: Metabolic stability in human assessed as half life at 160 mg/kg, po by LC-MS/MS analysis; type: ADME, organism-based; design: dose 160 mg/kg, route oral

Below are worked cases with known answers.
| STRUCTURE_STRING | half-life |
| --- | --- |
| CC(C)N1CC(=O)N=C1N/C(=N/c1ccc(Cl)c(Cl)c1)N1CCCCC1 | 28 min |
| CC(C)N1CC(=O)N=C1NC(=N)Nc1ccc(Cl)c(Cl)c1 | > 60 min |
| CC(C)N1CC(=O)N=C1N/C(=N/c1ccc(Cl)c(Cl)c1)N1CCCC1 | > 60 min |

The record that follows has no half-life shown yet.
Per the records, this molecule ( `CN1CC(=O)N=C1N/C(=N\C(=O)OC(C)(C)C)Nc1ccc(Cl)c(Cl)c1` ) has half-life equal to < 10 min

###

assay: Metabolic stability in mouse assessed as half life at 320 mg/kg, po by LC-MS/MS analysis; assay type: ADME, organism-based; parameters: dose 320 mg/kg, route oral; details: in vivo
PARAMETER: half-life (min)

| STRUCTURE_STRING | UNITS | half-life |
| --- | --- | --- |
| CC(C)/N=C(\NC1=NC(=O)CN1C(C)C)Nc1ccc(Cl)c(Cl)c1 | min | 17 |

a = CC(C)N/C(=N\C(=O)C(C)(C)C)NC1=NC(=O)CN1c1ccc(Cl)c(Cl)c1
b = CC(C)/N=C(\NC1=NC(=O)CN1C)Nc1ccc(Cl)c(Cl)c1
c = CCC(CC)C(=O)/N=C(\NC1=NC(=O)CN1C(C)C)Nc1ccc(Cl)c(Cl)c1
Data request: List these items ordered by half-life, big to small. // format: requested-order list of labels
Data returned: b, a, c

###

test: Metabolic stability in human assessed as half life at 320 mg/kg, po by LC-MS/MS analysis; type: ADME, organism-based; parameters: dose 320 mg/kg, route oral
PARAMETER: half-life (min)

| STRUCTURE_STRING | UNITS | half-life |
| --- | --- | --- |
| CCC(CC)C(=O)/N=C(\NC1=NC(=O)CN1C(C)C)Nc1ccc(Cl)c(Cl)c1 | min | 14 |

I = CC(C)N/C(=N\C(=O)C(C)(C)C)NC1=NC(=O)CN1c1ccc(Cl)c(Cl)c1
II = CCC(CC)C(=O)/N=C(\NC1=NC(=O)CN1c1cccc(Cl)c1Cl)NC(C)C
Data request: Hey, which is lower on measured half-life, I or II ? Select an item and report its label.
Data returned: I

P = CC(C)NC(=N)NC1=NC(=O)CN1c1cccc(Cl)c1Cl
Q = CCOC(=O)/N=C(\NC1=NC(=O)CN1C(C)C)Nc1ccc(Cl)c(Cl)c1
Data request: Which of the two gives a bigger number for half-life: P or Q ? Select an item and report its label.
Data returned: P
(P: 53.7 min, Q: 34.3 min)

###

experiment: Metabolic stability in human assessed as half life at 160 mg/kg, po by LC-MS/MS analysis; format: ADME, organism-based; design: dose 160 mg/kg, route oral
half-life values by entry

Per the records, this compound ( `CC(C)(C)OC(=O)/N=C(\NC1=NC(=O)CN1C(C)(C)C)Nc1ccc(Cl)c(Cl)c1` ) has half-life equal to < 0.167 h

Per the records, this compound ( `CC(C)N1CC(=O)N=C1N/C(=N\C(=O)C(C)(C)C)Nc1ccc(Cl)c(Cl)c1` ) has half-life equal to > 1 h

Per the records, this compound ( `CN1CC(=O)N=C1NC(=N)Nc1ccc(Cl)c(Cl)c1` ) has half-life equal to > 1 h

Per the records, this compound ( `CC(C)(C)N1CC(=O)N=C1NC(=N)Nc1ccc(Cl)c(Cl)c1` ) has half-life equal to > 1 h

Per the records, this compound ( `CC(C)n1cc(OC(=O)C(C)(C)C)nc1N/C(=N\C(=O)C(C)(C)C)Nc1ccc(Cl)c(Cl)c1` ) has half-life equal to > 1 h
